The reported numbers originate from ChEMBL document CHEMBL1828563.

Target: CYP1A2 (Homo sapiens)
Sequence (P05177 whole entry): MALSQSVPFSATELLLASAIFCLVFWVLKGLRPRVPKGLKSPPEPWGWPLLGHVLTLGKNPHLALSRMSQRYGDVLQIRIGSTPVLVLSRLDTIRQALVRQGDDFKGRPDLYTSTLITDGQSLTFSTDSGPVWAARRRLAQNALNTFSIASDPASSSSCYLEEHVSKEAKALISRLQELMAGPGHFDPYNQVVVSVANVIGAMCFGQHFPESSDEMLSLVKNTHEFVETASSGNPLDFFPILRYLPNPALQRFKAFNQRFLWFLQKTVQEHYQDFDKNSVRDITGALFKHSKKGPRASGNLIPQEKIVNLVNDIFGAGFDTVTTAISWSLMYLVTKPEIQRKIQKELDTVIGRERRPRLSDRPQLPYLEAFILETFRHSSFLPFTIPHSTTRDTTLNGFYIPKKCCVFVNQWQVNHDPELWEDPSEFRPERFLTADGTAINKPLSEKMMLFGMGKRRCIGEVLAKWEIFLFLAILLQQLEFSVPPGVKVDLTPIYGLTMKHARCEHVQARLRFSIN
Assay: Inhibition of CYP1A2 in human liver microsomes at 0.4 uM
Assay type: ADME, Microsome
measurement-type: inhibition at 0.4 µM (%)

Use the examples below as a reference point.
• CN(C)C(=O)C(C)(C)C(c1ccc(Nc2ccc3ccccc3c2)cc1)n1ccnc1 (centres undefined) = 11
• CCOC(=O)C(C)(C)C(c1ccc(Nc2ccc3ccccc3c2)cc1)n1ccnc1 (centres undefined) = 20

A. COC(=O)C(C)(C)C(c1ccc(Nc2ccc3ccccc3c2)cc1)n1cncn1 (centres undefined)
B. CNC(=O)C(C)(C)C(c1ccc(Nc2ccc3ccccc3c2)cc1)n1ccnc1 (centres undefined)
Q: Identify the item whose inhibition at 0.4 µM is the smaller number: A or B Field: selected label. Fill in the label of the entry you choose.
A: A
(A: 10%, B: 15%)

###

Biological target: UniProt P11712
measurement-type: pIC50
# pIC50 = -log10(concentration in molar units)

Q: Suppose we examine the compound C[C@H]([C@@H](c1ccc(Nc2nc3ccccc3s2)cc1)n1ccnc1)N(C)C ; what pIC50 value has been reported?
A: 4.96

###

Tested on: SH-SY5Y
Assay: Increase in CYP26A1 mRNA expression in human SH-SY5Y cells at 1 uM after 72 hrs by RT-PCR analysis in the presence of 0.1 uM all-trans-retinoic acid
Format: functional
# fold change (FC) per entry
Enter a number only.

• COC(=O)C(C)(C)C(c1ccc(Nc2ccc3ccccc3c2)cc1)n1cncn1 (centres undefined) = 5.2

Q: Which measured fold change (FC) value corresponds to CC(C)(C(N)=O)C(c1ccc(Nc2ccc3ccccc3c2)cc1)n1ccnc1 (centres undefined) ?
A: 4.1

Q: For the molecule shown here, CCOC(=O)C(C)(C)C(c1ccc(Nc2ccc3ccccc3c2)cc1)n1ccnc1 (centres undefined) , give the reported fold change (FC).
A: 5.8

Q: Consider the molecule COc1ccc2cc(Nc3ccc(C(n4ccnc4)C(C)(C)CO)cc3)ccc2c1 (centres undefined) and give its measured fold change (FC).
A: 3.7

###

Molecular target: CYP2D6 (Homo sapiens, UniProt P10635)
Sequence (P10635 whole entry): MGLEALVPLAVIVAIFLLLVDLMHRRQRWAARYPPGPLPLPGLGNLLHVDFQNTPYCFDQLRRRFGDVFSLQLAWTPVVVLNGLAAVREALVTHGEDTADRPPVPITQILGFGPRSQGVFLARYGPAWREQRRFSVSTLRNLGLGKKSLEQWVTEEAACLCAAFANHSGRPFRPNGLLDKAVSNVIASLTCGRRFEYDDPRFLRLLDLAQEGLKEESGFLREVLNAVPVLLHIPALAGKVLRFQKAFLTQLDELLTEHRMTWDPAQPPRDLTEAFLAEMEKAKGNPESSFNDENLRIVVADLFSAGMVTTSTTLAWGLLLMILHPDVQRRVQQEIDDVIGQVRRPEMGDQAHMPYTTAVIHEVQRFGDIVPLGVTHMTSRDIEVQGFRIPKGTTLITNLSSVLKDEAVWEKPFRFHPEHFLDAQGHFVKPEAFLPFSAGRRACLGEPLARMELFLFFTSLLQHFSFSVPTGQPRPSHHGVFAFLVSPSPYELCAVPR
Assay: Inhibition of CYP2D6 in human liver microsomes at 0.4 uM
Assay type: ADME, Microsome
measurement-type: inhibition at 0.4 µM (%)

* CNC(=O)C(C)(C)C(c1ccc(Nc2ccc3ccccc3c2)cc1)n1ccnc1 (centres undefined) | 13

A. CCOC(=O)C(C)(C)C(c1ccc(Nc2ccc3ccccc3c2)cc1)n1ccnc1 (centres undefined)
B. CN(C)C(=O)C(C)(C)C(c1ccc(Nc2ccc3ccccc3c2)cc1)n1ccnc1 (centres undefined)
Q: Param pair: A , B . Output: the one whose inhibition at 0.4 µM is numerically greater. Lab log: write the label of the selected item as the result.
A: B

###

Target: Cytochrome P450 26A1 (Homo sapiens, UniProt O43174)
Test: Inhibition of human CYP26A1 assessed using [11,12-3H]ATRA as substrate by scintillation counting
measurement-type: IC50 (µM)

• CNC(=O)C(C)(C)C(c1ccc(Nc2ccc3ccccc3c2)cc1)n1cncn1 (stereo not given) = 0.35
• CCCCOC(=O)C(C)(C)C(c1ccc(Nc2ccc3ccccc3c2)cc1)n1ccnc1 (stereo not given) = 0.2
• CC(C)OC(=O)C(C)(C)C(c1ccc(Nc2ccc3ccccc3c2)cc1)n1ccnc1 (stereo not given) = 0.29
• CCOC(=O)C(C)(C)C(c1ccc(Nc2ccc3ccccc3c2)cc1)n1ccnc1 (stereo not given) = 0.00035
• CCCCCOC(=O)C(C)(C)C(c1ccc(Nc2ccc3ccccc3c2)cc1)n1ccnc1 (stereo not given) = 0.14

A. c1ccc(C(c2ccc(Nc3ccc4ccccc4c3)cc2)n2ccnc2)cc1 (stereo not given)
B. CNC(=O)C(C)(C)C(c1ccc(Nc2ccc3ccccc3c2)cc1)n1ccnc1 (stereo not given)
C. CC(C)NC(=O)C(C)(C)C(c1ccc(Nc2ccc3ccccc3c2)cc1)n1ccnc1 (stereo not given)
D. CC(C)(C(N)=O)C(c1ccc(Nc2ccc3ccccc3c2)cc1)n1ccnc1 (stereo not given)
E. CN(C)C(=O)C(C)(C)C(c1ccc(Nc2ccc3ccccc3c2)cc1)n1ccnc1 (stereo not given)
Q: List from greatest to least IC50. Your answer should be the labels, listed in the requested order.
A: A, C, E, D, B
(A: 0.5 µM, C: 0.12 µM, E: 0.075 µM, D: 0.05 µM, B: 0.012 µM)

1. CC(C)(C(=O)OCc1ccccc1)C(c1ccc(Nc2ccc3ccccc3c2)cc1)n1ccnc1 (stereo not given)
2. COC(=O)C(C)(C)C(c1ccc(Nc2ccc3ccccc3c2)cc1)n1cncn1 (stereo not given)
3. COc1ccc2cc(Nc3ccc(C(n4ccnc4)C(C)(C)CO)cc3)ccc2c1 (stereo not given)
Q: Rank items: key IC50, increasing. # format: label list in the order the request specifies
A: 2, 3, 1
(2: 0.00035 µM, 3: 0.04 µM, 1: 0.4 µM)

###

Target: CYP2C19 (Homo sapiens)
Sequence (P33261 whole entry): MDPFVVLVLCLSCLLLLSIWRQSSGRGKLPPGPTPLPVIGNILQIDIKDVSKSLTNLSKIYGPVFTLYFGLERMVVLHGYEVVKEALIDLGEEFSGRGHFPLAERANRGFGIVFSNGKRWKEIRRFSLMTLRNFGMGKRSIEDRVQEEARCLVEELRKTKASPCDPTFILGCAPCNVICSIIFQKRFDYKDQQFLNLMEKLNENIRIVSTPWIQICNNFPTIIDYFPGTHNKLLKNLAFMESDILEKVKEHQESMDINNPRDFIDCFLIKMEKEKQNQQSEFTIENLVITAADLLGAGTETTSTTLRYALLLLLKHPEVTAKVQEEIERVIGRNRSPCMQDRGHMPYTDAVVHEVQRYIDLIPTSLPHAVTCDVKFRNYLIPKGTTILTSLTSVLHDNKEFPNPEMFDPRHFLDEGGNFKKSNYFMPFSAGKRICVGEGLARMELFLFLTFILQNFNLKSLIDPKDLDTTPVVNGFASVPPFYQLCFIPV
Test: Inhibition of CYP2C19 in human liver microsomes at 0.4 uM
Type: ADME, Microsome
measurement-type: inhibition at 0.4 µM (%)

- COC(=O)C(C)(C)C(c1ccc(Nc2ccc3ccccc3c2)cc1)n1cncn1 (centres undefined): 16
- CCOC(=O)C(C)(C)C(c1ccc(Nc2ccc3ccccc3c2)cc1)n1ccnc1 (centres undefined): 30

P. CN(C)C(=O)C(C)(C)C(c1ccc(Nc2ccc3ccccc3c2)cc1)n1ccnc1 (centres undefined)
Q. CNC(=O)C(C)(C)C(c1ccc(Nc2ccc3ccccc3c2)cc1)n1ccnc1 (centres undefined)
Q: Smaller inhibition at 0.4 µM value, P vs Q ? Lab log: write the label of the selected item as the result.
A: Q
(Q: 14%, P: 21%)

###

Assay: Half-life in human liver microsomes
Assay type: ADME, Microsome
measurement-type: half-life (h)

* COC(=O)C(C)(C)C(c1ccc(Nc2ccc3ccccc3c2)cc1)n1ccnc1 (configuration not stated) | 5.02
* COC(=O)C(C)(C)C(c1ccc(Nc2ccc3ccccc3c2)cc1)n1cncn1 (configuration not stated) | 3.73

###

Target: CYP2C9 (Homo sapiens)
Sequence (P11712 whole entry): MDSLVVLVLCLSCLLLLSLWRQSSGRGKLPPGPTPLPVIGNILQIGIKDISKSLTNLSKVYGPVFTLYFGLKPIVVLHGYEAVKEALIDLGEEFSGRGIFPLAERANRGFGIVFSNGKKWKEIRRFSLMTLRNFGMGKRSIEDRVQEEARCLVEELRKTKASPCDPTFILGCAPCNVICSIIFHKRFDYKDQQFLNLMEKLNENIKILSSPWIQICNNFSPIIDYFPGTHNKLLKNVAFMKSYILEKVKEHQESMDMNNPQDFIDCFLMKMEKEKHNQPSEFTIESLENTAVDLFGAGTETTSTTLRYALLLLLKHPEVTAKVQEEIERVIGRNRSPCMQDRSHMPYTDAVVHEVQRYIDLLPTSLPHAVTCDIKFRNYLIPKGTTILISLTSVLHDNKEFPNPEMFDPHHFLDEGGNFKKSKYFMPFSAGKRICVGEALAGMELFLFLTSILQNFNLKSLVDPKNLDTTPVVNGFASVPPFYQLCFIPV
Test: Inhibition of CYP2C9 in human liver microsomes at 0.4 uM
Format: ADME, Microsome
measurement-type: inhibition at 0.4 µM (%)

• CN(C)C(=O)C(C)(C)C(c1ccc(Nc2ccc3ccccc3c2)cc1)n1ccnc1 (centres undefined) = 52
• CNC(=O)C(C)(C)C(c1ccc(Nc2ccc3ccccc3c2)cc1)n1ccnc1 (centres undefined) = 45
• CCOC(=O)C(C)(C)C(c1ccc(Nc2ccc3ccccc3c2)cc1)n1ccnc1 (centres undefined) = 43
• COC(=O)C(C)(C)C(c1ccc(Nc2ccc3ccccc3c2)cc1)n1cncn1 (centres undefined) = 38

###

Target: CYP3A4 (Homo sapiens)
Sequence (P08684 whole entry): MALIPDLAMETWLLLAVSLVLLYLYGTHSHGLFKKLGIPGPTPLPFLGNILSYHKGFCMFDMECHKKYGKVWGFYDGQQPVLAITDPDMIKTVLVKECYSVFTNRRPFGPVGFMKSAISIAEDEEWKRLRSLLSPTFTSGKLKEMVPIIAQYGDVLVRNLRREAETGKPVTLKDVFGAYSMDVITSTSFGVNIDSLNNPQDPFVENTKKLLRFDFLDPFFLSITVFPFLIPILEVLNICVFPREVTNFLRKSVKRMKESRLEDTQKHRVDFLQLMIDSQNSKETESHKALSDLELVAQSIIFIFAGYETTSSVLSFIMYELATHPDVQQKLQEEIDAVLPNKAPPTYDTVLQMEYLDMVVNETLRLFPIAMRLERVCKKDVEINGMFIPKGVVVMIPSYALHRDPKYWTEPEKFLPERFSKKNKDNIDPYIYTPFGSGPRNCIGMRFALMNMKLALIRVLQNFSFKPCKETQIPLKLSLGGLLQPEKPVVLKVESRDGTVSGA
Assay: Inhibition of CYP3A4 in human liver microsomes at 0.4 uM
Assay type: ADME, Microsome
measurement-type: inhibition at 0.4 µM (%)

I. CCOC(=O)C(C)(C)C(c1ccc(Nc2ccc3ccccc3c2)cc1)n1ccnc1 (centres undefined)
II. COC(=O)C(C)(C)C(c1ccc(Nc2ccc3ccccc3c2)cc1)n1cncn1 (centres undefined)
III. CN(C)C(=O)C(C)(C)C(c1ccc(Nc2ccc3ccccc3c2)cc1)n1ccnc1 (centres undefined)
Q: Sort the entries above by inhibition at 0.4 µM, smallest first. Write the labels, ordered according to the request.
A: II, I, III

###

Biological target: Cytochrome P450 26A1 (Homo sapiens, UniProt O43174)
Sequence (O43174 whole entry): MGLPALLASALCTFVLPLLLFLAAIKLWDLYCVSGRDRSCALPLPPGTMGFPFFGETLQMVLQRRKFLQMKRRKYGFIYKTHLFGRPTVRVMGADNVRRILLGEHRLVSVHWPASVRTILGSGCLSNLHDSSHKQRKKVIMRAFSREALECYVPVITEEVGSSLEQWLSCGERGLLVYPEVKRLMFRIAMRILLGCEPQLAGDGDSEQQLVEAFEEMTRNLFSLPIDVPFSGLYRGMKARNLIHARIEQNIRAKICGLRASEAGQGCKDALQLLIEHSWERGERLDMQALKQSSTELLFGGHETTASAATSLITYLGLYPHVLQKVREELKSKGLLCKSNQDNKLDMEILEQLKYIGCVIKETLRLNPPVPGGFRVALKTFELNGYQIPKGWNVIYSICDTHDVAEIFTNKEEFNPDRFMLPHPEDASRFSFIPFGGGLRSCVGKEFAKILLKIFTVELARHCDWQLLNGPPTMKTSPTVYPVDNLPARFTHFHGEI
Assay: Inhibition of CYP26 in human MCF-7 cell microsomes
measurement-type: IC50 (nM)
Express it in nM; write the number only.

Q: What value of measured IC50 is listed for COC(=O)C(C)(C)C(c1ccc(Nc2ccc3ccccc3c2)cc1)n1cncn1 (stereo unspecified) ?
A: 0.3
